biological target: Human Cav3.1 calcium channel (Homo sapiens, UniProt O43497); construct: expressed in transfected cells; host or cells: HEK-293 natClytin/TASK1+Cav3.1 cell line; test: Human Cav3.1 calcium channel patch clamp assay (SyncroPatch 384PE; single point and IC50, voltage dependent block); type: cell-based; conditions: Testing Conc 1.25; HEK-293 natClytin/TASK1+Cav3.1 cell line, patch clamp
Sequence (O43497 whole entry): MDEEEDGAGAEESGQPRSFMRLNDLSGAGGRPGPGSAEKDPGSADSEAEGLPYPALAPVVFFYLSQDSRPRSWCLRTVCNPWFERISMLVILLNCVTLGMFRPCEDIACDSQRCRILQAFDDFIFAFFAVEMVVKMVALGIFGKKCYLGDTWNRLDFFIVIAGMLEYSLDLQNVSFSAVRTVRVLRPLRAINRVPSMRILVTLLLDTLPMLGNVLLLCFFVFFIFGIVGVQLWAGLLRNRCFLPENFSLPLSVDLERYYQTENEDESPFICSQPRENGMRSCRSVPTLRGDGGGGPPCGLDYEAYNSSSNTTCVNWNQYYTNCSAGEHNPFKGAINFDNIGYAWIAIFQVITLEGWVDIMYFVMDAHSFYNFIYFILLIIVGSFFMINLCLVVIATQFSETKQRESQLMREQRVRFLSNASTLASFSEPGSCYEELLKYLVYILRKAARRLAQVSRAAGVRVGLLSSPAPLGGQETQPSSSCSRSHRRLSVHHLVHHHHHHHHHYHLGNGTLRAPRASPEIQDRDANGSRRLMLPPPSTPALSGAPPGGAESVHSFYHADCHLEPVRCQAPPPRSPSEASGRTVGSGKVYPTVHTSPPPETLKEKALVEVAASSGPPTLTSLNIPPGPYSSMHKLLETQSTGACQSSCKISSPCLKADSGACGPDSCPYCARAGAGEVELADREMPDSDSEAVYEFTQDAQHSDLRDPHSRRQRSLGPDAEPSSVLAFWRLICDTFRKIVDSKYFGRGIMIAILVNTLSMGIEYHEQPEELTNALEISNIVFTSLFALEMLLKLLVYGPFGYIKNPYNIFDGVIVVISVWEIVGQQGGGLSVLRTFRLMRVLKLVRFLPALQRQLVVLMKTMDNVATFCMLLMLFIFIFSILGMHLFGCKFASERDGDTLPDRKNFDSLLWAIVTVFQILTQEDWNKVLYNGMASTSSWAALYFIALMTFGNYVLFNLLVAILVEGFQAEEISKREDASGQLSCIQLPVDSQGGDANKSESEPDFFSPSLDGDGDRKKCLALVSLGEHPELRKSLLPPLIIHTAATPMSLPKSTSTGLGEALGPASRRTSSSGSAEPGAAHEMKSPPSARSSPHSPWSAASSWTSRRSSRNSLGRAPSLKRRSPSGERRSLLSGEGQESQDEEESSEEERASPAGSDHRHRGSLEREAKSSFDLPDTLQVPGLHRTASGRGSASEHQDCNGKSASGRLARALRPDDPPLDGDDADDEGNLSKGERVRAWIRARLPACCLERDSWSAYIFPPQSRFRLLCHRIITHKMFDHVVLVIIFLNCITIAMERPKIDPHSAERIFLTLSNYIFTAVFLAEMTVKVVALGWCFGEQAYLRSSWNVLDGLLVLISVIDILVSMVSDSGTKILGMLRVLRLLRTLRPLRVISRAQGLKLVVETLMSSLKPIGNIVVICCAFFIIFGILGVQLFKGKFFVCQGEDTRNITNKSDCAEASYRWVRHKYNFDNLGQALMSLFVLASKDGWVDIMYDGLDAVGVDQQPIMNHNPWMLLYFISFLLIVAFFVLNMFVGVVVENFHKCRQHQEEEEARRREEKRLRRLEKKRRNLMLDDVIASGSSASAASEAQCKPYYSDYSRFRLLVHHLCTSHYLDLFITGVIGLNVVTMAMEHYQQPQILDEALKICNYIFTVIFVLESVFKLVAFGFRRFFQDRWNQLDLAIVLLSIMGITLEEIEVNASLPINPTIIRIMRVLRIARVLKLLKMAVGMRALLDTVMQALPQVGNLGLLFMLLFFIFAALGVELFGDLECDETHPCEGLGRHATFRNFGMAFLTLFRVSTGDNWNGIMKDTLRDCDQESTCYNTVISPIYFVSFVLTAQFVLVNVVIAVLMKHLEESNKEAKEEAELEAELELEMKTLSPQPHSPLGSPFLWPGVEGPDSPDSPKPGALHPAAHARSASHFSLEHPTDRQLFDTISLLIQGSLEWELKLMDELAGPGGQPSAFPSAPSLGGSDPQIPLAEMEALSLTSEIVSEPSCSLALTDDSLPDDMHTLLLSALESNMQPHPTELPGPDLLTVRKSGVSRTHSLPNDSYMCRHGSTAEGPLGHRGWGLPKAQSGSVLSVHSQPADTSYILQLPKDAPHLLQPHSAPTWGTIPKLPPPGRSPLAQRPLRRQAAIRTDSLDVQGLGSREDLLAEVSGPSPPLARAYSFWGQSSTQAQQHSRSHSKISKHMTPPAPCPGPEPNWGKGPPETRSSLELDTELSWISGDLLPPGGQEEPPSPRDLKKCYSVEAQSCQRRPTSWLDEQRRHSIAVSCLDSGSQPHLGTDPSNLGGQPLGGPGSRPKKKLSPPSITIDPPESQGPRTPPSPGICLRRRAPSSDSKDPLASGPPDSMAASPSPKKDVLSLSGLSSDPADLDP
Measured endpoint: % Inhibition (Single Point Data) (%)
Answers are plain numbers, in %.

1) CC(C)(CO)NC(=O)CN1C2CCC1CN(Cc1nc3c(Cl)cc(F)cc3[nH]1)C2 [Compound 79]
100
2) CC(C(=O)Nc1cc(F)cc(Cl)c1)N1C[C@@H]2C[C@H]1CN2CC(=O)NC1(C(F)(F)F)CC1 (some centres unmarked) [Compound 262]
87.794
3) O=C(CN1CC2CC(C1)N2CCNC(=O)C1(C(F)(F)F)CC1)Nc1ccc(F)c(Cl)c1 [Compound 16]
94.311

Would you mind listing % Inhibition (Single Point Data) for each of the following compounds?
1. CC(C)(C)NC(=O)CN1C2CCC1CN(Cc1nc3c(Cl)ccc(F)c3[nH]1)C2 [Compound 185]
2. Fc1cc(Cl)c2nc(CN3CC4CC(C3)N4CC(F)C3CCCCC3)[nH]c2c1 (centres unmarked) [Compound 169]
3. N#CC1(CN2C3CC2CN(CC(=O)Nc2cc(F)cc(Cl)c2)C3)CCC(F)(F)CC1 [Compound 52]
4. CC(C)(C)CCN1CCN(Cc2nc3c(Cl)cc(F)cc3[nH]2)CC1 [Compound 73]
5. CC(C)(NC(=O)CN1C[C@H]2C[C@@H]1CN2CC(=O)Nc1ccc(F)c(Cl)c1)C(F)(F)F [Compound 27]

99.412
84.629
51.764
84.745
69.274

Reference source for all entries: patent US20250213558A1
